tested on: CAL-85-1; assay: normalised viability (% of control), CellTiter-Blue; higher = more viable cells (about 100 = DMSO control); settings: incubation time: 72 h
reported property: normalised viability (%)
Respond with the bare value in %.

INSERT INTO assay_data (compound, target_desc, reported_property, test_value) VALUES
  ('CC(C)C[C@H](NC(=O)[C@H](CCc1ccccc1)NC(=O)CN1CCOCC1)C(=O)N[C@@H](Cc1ccccc1)C(=O)N[C@@H](CC(C)C)C(=O)[C@@]1(C)CO1 [Carfilzomib] (300 nM)', 'CAL-85-1', 'normalised viability', 2.07),
  ('NC(=O)c1cccc2cn(-c3ccc([C@@H]4CCCNC4)cc3)nc12 [MK-4827] (3000 nM)', 'CAL-85-1', 'normalised viability', 85.8),
  ('O=C(O)CC[C@H]1CC[C@@](c2cc(F)ccc2F)(S(=O)(=O)c2ccc(Cl)cc2)CC1 [MK-0752] (300 nM)', 'CAL-85-1', 'normalised viability', 94.6),
  ('NC1(c2ccc(-c3nc4ccn5c(=O)[nH]nc5c4cc3-c3ccccc3)cc2)CCC1 [MK-2206] (300 nM)', 'CAL-85-1', 'normalised viability', 82.9),
  ('NC(=O)NO [Hydroxyurea] (30000 nM)', 'CAL-85-1', 'normalised viability', 89.1),
  ('N[C@@H](Cc1ccc(N(CCCl)CCCl)cc1)C(=O)O [Melphalan] (297 nM)', 'CAL-85-1', 'normalised viability', 97.9);

Quick one: normalised viability of CN1CCN(c2nc(C3=C(c4c[nH]c5ccccc45)C(=O)NC3=O)c3ccccc3n2)CC1 [Sotrastaurin] (3000 nM) ?
141

* * *

test system: CAL-120; assay: normalised viability (% of control), CellTiter-Blue; higher = more viable cells (100 = DMSO, 0 = benzethonium chloride kill control); conditions: incubation time: 72 h
Measured normalised viability by item
Don't forget the unit after the number, please.

Solved cases below.
INSERT INTO results (compound, test_value) VALUES
  ('C[C@@H]1C[C@H]2[C@@H]3CCC4=CC(=O)C=C[C@]4(C)[C@@]3(F)[C@@H](O)C[C@]2(C)[C@@]1(O)C(=O)CO [Dexamethasone] (1 nM)', '82.3%'),
  ('COc1cc2c(N3CCN(C(=O)Nc4ccc(OC(C)C)cc4)CC3)ncnc2cc1OCCCN1CCCCC1 [Tandutinib] (0.1 nM)', '98.7%');

Quick one: normalised viability of C[C@@H](C(=O)O)c1ccc(-c2ccccc2)c(F)c1 [Tarenflurbil] (1 nM) ?
93.7%

Quick one: normalised viability of C[C@]12C=CC(=O)C=C1CC[C@@H]1[C@@H]2C(=O)C[C@@]2(C)[C@H]1CC[C@]2(O)C(=O)CO [Prednisone] (1 nM) ?
84.3%

* * *

Measured normalised viability by item
system: BT-549; test: normalised viability (% of control), CellTiter-Blue; higher = more viable cells (about 100 = DMSO control); settings: 10 nM; incubation time: 72 h
Respond with the bare value in %.

Solved cases below.
INSERT INTO measurements (molecule, reported_property, test_value) VALUES
  ('O=NN(CCCl)C(=O)NC1CCCCC1 [Lomustine]', 'normalised viability', 84.4),
  ('CN1CCN(c2nc(C3=C(c4c[nH]c5ccccc45)C(=O)NC3=O)c3ccccc3n2)CC1 [Sotrastaurin]', 'normalised viability', 82.5),
  ('CCN(CC)CCOc1ccc(C(=C(Cl)c2ccccc2)c2ccccc2)cc1 [Clomifene]', 'normalised viability', 109);

Shift focus to the following entry.
Quick one: normalised viability of C[C@]12C=CC(=O)C=C1CC[C@@H]1[C@@H]2C(=O)C[C@@]2(C)[C@H]1CC[C@]2(O)C(=O)CO [Prednisone] ?
96.7

Measured values drawn from the supplement of paper PMC4862054 for this set.
